Hello, the source for this data is PubChem BioAssay (NCI), in case you need it.

# Test system: T-47D breast
# test-details: NCI-60 one-dose screen, 48 h
# settings: 10 µM unless noted
The panel holds about 83,000 compounds, 20% with a hit somewhere; the sample as a whole holds those more often. The source made the active and inactive calls. Rule for the calls: active = growth percent below 10; inactive = the rest.
Answer with one of the outcomes given here: active, inactive

Just curious, what result did O=C1/C(=C/c2ccccc2)CCc2nc3ccccc3c(/C=C/c3ccc(Cl)cc3)c21 get here?
inactive

Called result for N=C1C(c2nc(-c3ccc(Br)cc3)cs2)=C(O)CN1CC1CCCO1 (stereo not given)
inactive

Given CCCCCCCCCCCCCCCCCCOc1ccc(CC(=O)OCC[N+]2(C)CCCC2)cc1 , state the outcome it received in this test.
inactive

Dear colleague, could you share the recorded outcome for O=C1c2cccc(NCCN=Cc3cc([N+](=O)[O-])ccc3O)c2C(=O)c2c(NCCN=Cc3cc([N+](=O)[O-])ccc3O)cccc21 when you have a moment?
inactive

Hello, I am checking results. What call was entered for O=C(O)c1ccc2c(c1)CCC2 ?
inactive

Hi team, can someone confirm the assay call for NS(=O)(=O)c1ccc(-n2nc(C(=O)N/N=C\c3ccc(F)cc3)cc2-c2ccc(Cl)cc2)cc1 ?
inactive

Lab log entry: COc1ccc2[nH]c(O)c(/C=c3/cc4c(c(-c5cc(OC)c(OC)c(OC)c5)n3)=Nc3ccccc3-4)c2c1 — outcome as called in the assay?
inactive

What did this assay record as the result for COc1cccc(C(=O)NCCCNc2cc(-c3cn(-c4ccccc4)nc3-c3cccc(OC)c3)ccn2)c1 ?
active

Fill in: this test's call for COc1cccc(-c2nc3sccn3c2-c2ccnc(NCCNS(=O)(=O)c3cccc(Cl)c3)c2)c1 is ___
active

What outcome does the record of this test show for CCCCCCN(CCCCCC)c1ccc(/C=C2/SC(=O)N(c3nc(N4CCCC4)nc(N4CCCC4)n3)C2=O)c(C)c1 ?
inactive

Could you kindly confirm the outcome this assay logged for CC1(c2ccccc2)NC(=O)N(NC(=O)CSc2nc(-c3cccs3)nc3ccccc23)C1=O (stereo not given) ?
inactive

Record lookup: outcome of this test for Cc1ccc(-c2c(-c3ccccc3)c(=O)oc3ccc(C)cc23)cc1 ?
inactive

Test call, this molecule: Cc1cc(C)c2c(-c3nnc(N)s3)cc(=O)oc2c1
inactive

Please let me know the test result on file for COC1=C(OC)C(=O)C(OC)=C(OC)C1=O .
inactive

Assay result, entry FC(F)(F)c1cc(Nc2ccc3cc(OCCCN4CCOCC4)ccc3n2)ccc1Cl — outcome?
inactive

// return assay outcome for COc1cc(/C=C/C(=O)c2cccc(-n3cc(-c4ccccc4)[nH]c3=O)c2)ccc1O
inactive

Recorded call for CSc1n(Cc2ccc3ccccc3c2)c(C)c[n+]1Cc1ccc2ccccc2c1 ?
active

Please indicate how the test categorized Cc1ccc(C(=O)C2=C(O)C(=O)N(Cc3cccnc3)C2c2ccccc2F)o1 (stereo not given) .
inactive

What did the test return for NNC(=O)c1nc(N)n(-c2ccc(S(N)(=O)=O)cc2)n1 ?
inactive

// param item: CC(C)(C)n1cc(-c2ccnc(NCCCNS(=O)(=O)c3ccccc3)c2)c(-c2ccccc2)n1 ; yields the recorded call
active

---

# System: UACC-62 melanoma
# test-details: NCI-60 one-dose screen, 48 h
# settings: 10 µM unless noted
# Method: Growth inhibition of the UACC-62 human tumor cell line is measured as a screen for anti-cancer activity. Cells are grown in 96 well plates and exposed to the test compound for 48 hours. Compounds are tested at a single concentration, which is 10^-5 M for most compounds. The reported endpoint is percent growth (GI% or GIPRCNT), where numbers from 0 - 100% represent growth inhibition, and numbers from -100% - 0 represent cell death. For example, a value of 40 represents 60% growth inhibition. […]
The panel holds about 83,000 compounds, 20% with a hit somewhere; the sample as a whole holds those more often. The source made the active and inactive calls. The calls were made as follows: active = growth percent below 10; inactive = the rest.
// one of active, inactive, no free text

Answer briefly: the call reported for O=C1/C(=C/c2ccccc2)CCc2nc3ccccc3c(/C=C/c3ccc(Cl)cc3)c21 in this assay.
inactive

For this compound, state the assay outcome: COc1ccc(/C=C/c2c(C(=O)/C=C/c3ccc(F)cc3)c(C)nc3ccccc23)cc1
inactive

What is the recorded call for this compound in the test? Cc1cccc(NC(=O)N/C(N)=N/c2nc(C)c(C)s2)c1
inactive

Hello, I am checking results. What call was entered for CCCCCc1nc2c(c3c1CCCC3)CCCC2 ?
inactive

Look up the recorded call for N#Cc1c(-c2ccccc2)cc(-c2ccc(Nc3nc(Nc4ccc(F)cc4)nc(Nc4ccc(F)cc4)n3)cc2)nc1N in this test.
inactive

Tell me the recorded outcome of this test for COc1cc(C(=O)/C=C/c2c(C(F)(F)F)nc3sccn23)cc(OC)c1OC .
active

Please state the recorded outcome for this compound: Cn1cc2c(c1)-c1nc(Nc3ccccc3)ncc1CC2
inactive

Recorded test outcome, item COc1ccc(/C=N/C2=C(C#N)C(c3ccc(OC)cc3)c3ccc4ccccc4c3O2)cc1 (stereo unspecified)
inactive

# outcome recorded in this test, key = Cc1ccc(-c2c(-c3ccccc3)c(=O)oc3ccc(C)cc23)cc1
inactive

Short answer needed: outcome of this test for COc1ccc2c(c1)CCCN2c1c2ccccc2nc2ccccc12 ?
active

For O=C1/C(=C\c2c[nH]c3ccccc23)c2ccccc2N1c1c(Cl)cccc1Cl , what call appears in the results of this test?
active

Please share the test call associated with NC(=S)Nc1cccc(O)c1 .
inactive

I would be grateful if you could indicate the recorded call for COc1ccc(C(=NN=C(N)N)c2ccc(OC)cc2)cc1 .
inactive

Hello, I am checking results. What call was entered for COc1cc(C(=O)c2cc(C)c3[nH]c4ccc(Cl)cc4c3c2C)cc(OC)c1OC ?
inactive

Which result was noted for this compound in the test: O=c1c2cc(F)ccc2sc2c(NCCN3CCCCC3)nc3ccccc3c12
inactive

Hi team, can someone confirm the assay call for Cc1c(C(=O)OC(=NC2CCCCC2)NC2CCCCC2)sc2c1c(=O)nc1c(C#N)n[nH]n12 ?
inactive

// param item: O=C(O)C1CCC(=O)N1C(=O)OCc1ccccc1 (stereo unspecified) ; yields the recorded call
inactive

What is the recorded call for this compound in the test? CCCCn1c(=O)c2c(nc3n2CCCN3CCc2ccc(OCC(=O)NCCN(CC)CC)cc2)n(CCCC)c1=O
inactive

Which result was noted for this compound in the test: Oc1c(CN2CCCC2)cc(COCc2ccc(Br)cc2)c2cccnc12
active

// outcome(item) with item = COc1cccc(-c2nc3sccn3c2-c2ccnc(NCCNS(=O)(=O)c3cccc(F)c3)c2)c1
active

// param item: CC1=C([Se]CC(OC(=O)CC[Se]c2ccccc2)C(=O)NCCCCCC(=O)OCc2ccccc2)C(=O)c2ccccc2C1=O (stereo unspecified) ; yields the recorded call
inactive

---

# Test system: SNB-75 CNS
# test-details: NCI-60 one-dose screen, 48 h
# settings: 10 µM unless noted
This is part of a sample that, as a whole, favours compounds with a hit. Of some 83,000 tested, about 20% had one in any assay. Activity calls are given as the source filed them. The calls were made as follows: active = growth percent below 10; inactive = the rest.
Outcome (select one): 1 (yes) (active), 0 (no) (inactive)

Record request — test call for C[n+]1cc2cc(C(N)=O)[nH]c3c(=N)c(Cl)c(N)c1c23
0 (no)

For CN(C)CC1C(=O)O[C@H]2[C@H]1CC/C(COC(=O)c1cc3ccccc3[nH]1)=C\CC[C@@]1(C)O[C@@H]21 (stereo partly drawn) , what call appears in the results of this test?
1 (yes)

Please state the recorded outcome for this compound: c1ccc2c(c1)nc(CN1CCOCC1)n1cc(N3CCCC3)nc21
0 (no)

Just curious, what result did Cc1cccc(NC(=O)CSc2nc3ccccc3[nH]2)c1 get here?
0 (no)

Recorded call for COc1ccc(/C=c2\nc3n(-c4ccccc4)c4nc5c6c(sc5c(=N)n4n-3c2=O)CCCC6)cc1 ?
0 (no)

Per the records of this test, what outcome belongs to O=C(/C=C/c1c(Cl)nc2sccn12)c1ccc(F)c(F)c1 ?
0 (no)

I'd appreciate the recorded outcome for Cc1ccc(C(=O)C2=C(O)C(=O)N(Cc3cccnc3)C2c2ccccc2F)o1 (stereo not drawn) from this test.
0 (no)

What classification did COc1ccc(-c2cc(-c3cc(OC)ccc3OC)nc(SCC(=O)c3ccccc3)c2C#N)cc1 end up with in this test?
0 (no)

How did this test come out for O=C(Nc1ccc(Nc2ccncc2)cc1)c1ccc(C(=O)Nc2ccc(Nc3ccncc3)cc2)cc1 ?
0 (no)

Which outcome did this test record for the compound C[C@]12CC[C@@H]3c4cc(OC(F)F)c(O)cc4CC[C@H]3[C@@H]1CC[C@@H]2OS(N)(=O)=O ?
1 (yes)

Hi, do you know how Cc1cc(NCCCCNc2ccnc3cc(Cl)ccc23)nc(Nc2ccc(C(=O)N3CCCCC3)cc2)n1 came out in this test?
1 (yes)

Short answer needed: outcome of this test for C=C(C)[C@@H]1CC[C@]2(C(=O)NC3CCCCC3)CC[C@]3(C)[C@H](CC[C@@H]4[C@@]5(C)CCCNC(C)(C)[C@@H]5CC[C@]43C)[C@@H]12 ?
0 (no)

State the result this test recorded for N#Cc1c(N)nc(NCCO)nc1-c1ccc(F)cc1 .
0 (no)

Please indicate how the test categorized COCN1CCC2N(COC)CCC3N(COC)CCC1N23 (stereo not drawn) .
0 (no)

Recorded test call requested for COC(=O)[C@]12CC[C@@H](C)[C@H](C)[C@@H]1C1=CC[C@@H]3[C@@]4(C)C(C=O)=C[C@@](C)(COS(C)(=O)=O)C4[C@H](O)C[C@@]3(C)[C@]1(C)CC2 (stereo partly drawn)
1 (yes)

State the result this test recorded for O=[N+]([O-])c1ccc(OCCO)cc1 .
0 (no)

Look up the recorded call for C=C(C)[C@@H]1CC=C2c3sc(-c4ccc(C)cc4)nc3C[C@@H](C)[C@]2(C)C1 in this test.
0 (no)

Please share the test call associated with CCOC(=O)c1c(/C=C/C(=O)O)nc2ccccc2c1/C=C/c1ccccc1 .
0 (no)

Tell me the recorded outcome of this test for COc1cc(/C=C/C(=O)c2cccc(-n3cc(-c4ccccc4)[nH]c3=O)c2)ccc1O .
0 (no)

# lookup: test call for Cc1ccc(NS(=O)(=O)c2ccc3c(c2)C(=O)CC(c2ccc(C(=O)C(C)C)cc2)N3)cc1C (stereo not drawn)
0 (no)

Please let me know the test result on file for CC(C)(C)OC(=O)Nc1ccc2c(c1)C(NC(=O)Nc1cccc(C#N)c1)CC(C)(C)O2 (stereo not drawn) .
0 (no)

State the result this test recorded for CC(=O)N1N=C(c2ccc(Nc3nc(Nc4ccc(F)cc4)nc(Nc4ccc(F)cc4)n3)cc2)CC1c1cccc([N+](=O)[O-])c1 (stereo not drawn) .
0 (no)

For O=C1OC(c2nc3ccccc3s2)=C/C1=C\c1ccc(O)cc1 , what call appears in the results of this test?
0 (no)

Outcome logged for COc1ccc(-c2csc(C3=C(O)CN(C(C)C)C3=N)n2)cc1OC in this assay:
0 (no)

Which result was noted for this compound in the test: Cc1cccc(-c2nc(N(C)c3ccc4ncsc4c3)c3ccccc3n2)n1
0 (no)

Recorded test call requested for O=C(N=c1oc2ccccc2cc1-c1cc2ccccc2[nH]1)c1ccc(Cl)cc1
0 (no)

Entry COC(=O)/C=C1\S/C(=N\NS(=O)(=O)c2ccc(C)cc2)N(c2ccccc2)C1=O : call = ?
0 (no)

Returns: the outcome recorded for CCCCCCCCCOc1c(OC)cc(C2CC(=O)Nc3c2c(C)nn3-c2nc3ccccc3[nH]2)cc1OC (stereo not drawn) in this assay.
1 (yes)

Outcome? Cc1ccc2nc3ccccc3c(NCc3ccccc3)c2c1
0 (no)

State the result this test recorded for CCOc1ccccc1-c1cc(-c2cccs2)c(C#N)c(=O)[nH]1 .
0 (no)

What was the test verdict on COc1cccc(-c2nc3sccn3c2-c2ccnc(NCCNS(=O)(=O)c3ccc(C(F)(F)F)cc3)c2)c1 ?
0 (no)

Assay outcome for COc1cc(C2NC(=O)c3ccccc3N2)ccc1OCCCCCOc1c(OC)cc(C2=NOC(c3cc(OC)c(OC)c(OC)c3)C2)cc1OC (stereo not drawn) : what was it?
0 (no)

Record lookup: outcome of this test for CC(CCc1ccc(Cl)c(Cl)c1)NCc1ccc(C(C)(C)C)cc1 (stereo not drawn) ?
0 (no)

// return assay outcome for COc1cc(C2CC(c3ccc(Nc4ccnc5cc(Cl)ccc45)cc3)=NN2C=O)cc(OC)c1OC (stereo not drawn)
0 (no)

Lab log entry: Cn1cc(-c2csc(-c3ccccc3)n2)c2cccnc21 — outcome as called in the assay?
1 (yes)

Answer briefly: the call reported for COc1ccc2cc(-c3cc(OC)c(OC)c(OC)c3)c(=O)oc2c1 in this assay.
0 (no)

How was N=C(N)c1ccc(-c2ccc(-c3cncc4ccccc34)s2)s1 classified in this test?
1 (yes)

What classification did O=C(/C=C/c1cccc(O)c1)c1cccc(-n2cc(-c3ccc4ccccc4c3)[nH]c2=O)c1 end up with in this test?
1 (yes)
